System: UACC-62 melanoma
measurement_protocol: NCI-60 one-dose screen, 48 h (100 = growth as untreated, 0 = no growth, -100 = all killed)
condition_context: 10 µM unless noted
About 83,000 compounds went through this panel and 20% of them were active in at least one assay; those are over-represented in the sample as a whole.
Reported values of growth for individual entries
Response body: numeric value in %, unit text excluded.

Sample answers from the record:
{"compound": "CN(C)c1ccc(/C=C/c2nccc3ccccc23)cc1", "growth, %": 60.9}
{"compound": "CC(CSc1n[nH]c(=S)s1)c1ccccc1 (centres undefined)", "growth, %": 108}
{"compound": "CCOc1ccc(C(C[N+](=O)[O-])Sc2ccccc2N)cc1 (centres undefined)", "growth, %": 64.6}
{"compound": "Cc1ccc2c(c1)sc(-c1ccc(N(C)C)cc1)[n+]2C", "growth, %": 8.89}
{"compound": "c1ccc(-c2cccc(-c3ccccn3)n2)nc1", "growth, %": 3.51}
{"compound": "CCOC(=O)NC(/C=C/c1ccccc1)NC(=O)OCC", "growth, %": 97.7}
{"compound": "N#CCc1cccc2ccccc12", "growth, %": 111}
{"compound": "CN(C)c1ccc(C(=C2C=CC(=[N+](C)C)C=C2)c2ccc(N(C)C)cc2)cc1", "growth, %": -54}

Query: growth for `Cc1cc2nc(CC(=O)c3ccncc3)c(=O)[nH]c2cc1C` ?
Result: 88.9

* * *

Tested on: EKVX NSCLC
measurement_protocol: NCI-60 one-dose screen, 48 h (100 = growth as untreated, 0 = no growth, -100 = all killed)
condition_context: 10 µM unless noted
Experimental: Growth inhibition of the EKVX human Non-Small Cell Lung tumor cell line is measured as a screen for anti-cancer activity. Cells are grown in 96 well plates and exposed to the test compound for 48 hours. Compounds are tested at a single concentration, which is 10^-5 M for most compounds. The reported endpoint is percent growth (GI% or GIPRCNT), where numbers from 0 - 100% represent growth inhibition, and numbers from -100% - 0 represent cell death. […]
About 83,000 compounds went through this panel and 20% of them were active in at least one assay; those are over-represented in the sample as a whole.
Listed below: growth values for each entry.
Reply with just the number (in %).

Below: 8 molecules and their reported growth.
{"molecule": "Cc1cc(I)nc2ccccc12", "units_text": "%", "measured": 101}
{"molecule": "O/N=C1\\c2ccccc2-c2ccc(F)cc21", "units_text": "%", "measured": 90.4}
{"molecule": "Nc1cccc2cccc([N+](=O)[O-])c12", "units_text": "%", "measured": 120}
{"molecule": "CC1=CC(=O)C=CC1(C)C(Cl)(Cl)Cl (stereo not drawn)", "units_text": "%", "measured": 100}
{"molecule": "CC(=O)c1c(O)c(C)c(O)c2c1OC1=CC(=O)C(C(C)=O)C(=O)C12C (stereo not drawn)", "units_text": "%", "measured": 51.9}
{"molecule": "O=C(c1ccccc1)C(O)C(Br)(CBr)c1ccccc1 (stereo not drawn)", "units_text": "%", "measured": 108}
{"molecule": "CC(C)Nc1ccc(Nc2ccc(NC(C)C)cc2)cc1", "units_text": "%", "measured": 31.3}
{"molecule": "Cc1cc2nc(CC(=O)c3ccncc3)c(=O)[nH]c2cc1C", "units_text": "%", "measured": 56.1}

Query: Item under review: `Cc1cc(C(=C2C=CC(=Nc3ccccc3)C=C2)c2ccc(Nc3ccccc3)cc2)ccc1N` . Reported growth?
Result: -42.7

Query: Given `CC(C)(C)c1ccc(O)c(-c2ccccc2)c1` , state its recorded growth.
Result: 103

Query: Requested field: growth. Item: COc1cccc2c1C(=O)c1c(O)c3c(c(O)c1C2=O)C[C@@](O)(C(=O)CO)C[C@@H]3OC1CC(OC(C)=O)C(OC(C)=O)C(C)O1 (stereo partly drawn)
Result: 30.5

Query: I have this molecule here, `CCC(=O)c1cc([N+](=O)[O-])c(Br)s1` , and I need its recorded growth.
Result: 104

Query: Consider the molecule `CC(=O)N1CC(=O)NC1=S` and give its measured growth.
Result: 94

Query: Given `C[n+]1ccccc1C[n+]1ccccc1` , state its recorded growth.
Result: 113

Query: Any idea what growth was measured for CCC(C)C(N)C(=O)NC(CC(N)=O)C(=O)NC(CC(C)C)C(=O)NC(CCCCN)C(=O)NC(C)C(=O)NC(CC(C)C)C(=O)NC(C)C(=O)NC(C)C(=O)NC(CC(C)C)C(=O)NC(C)C(=O)NC(CCCCN)C(=O)NC(CCCCN)C(=O)NC(C(=O)NC(CC(C)C)C(N)=O)C(C)CC (stereo not drawn) ?
Result: 91.2

Query: Would you kindly share the measured growth for OC(c1cc2ccc(C(F)(F)F)cc2c2cc(C(F)(F)F)ccc12)C1CCCCN1 (stereo not drawn) ?
Result: -96.7

Query: Look at this molecule and give its reported growth. `C(=N\Nc1ccc2ccccc2n1)/c1ccccn1`
Result: 20.7

* * *

System: HCT-116 colon
measurement_protocol: NCI-60 one-dose screen, 48 h (100 = growth as untreated, 0 = no growth, -100 = all killed)
condition_context: 10 µM unless noted
The panel holds about 83,000 compounds, 20% with a hit somewhere; the sample as a whole holds those more often.
quantity_kind: growth (%)
Response body: numeric value in %, unit text excluded.

{"compound": "O=[N+]([O-])CC(O)c1ccccc1 (centres undefined)", "quantity_kind": "growth", "measured": 78.6}
{"compound": "Cc1c(O)ccc(SC#N)c1C", "quantity_kind": "growth", "measured": 88}
{"compound": "O=C(NOC(=O)c1ccccc1)c1ccccc1", "quantity_kind": "growth", "measured": 95.7}
{"compound": "CC(=O)Nc1ccc(C(=O)CCl)cc1", "quantity_kind": "growth", "measured": 32.3}
{"compound": "Nc1nc(N)c2cc(Sc3cccc(C(F)(F)F)c3)ccc2n1", "quantity_kind": "growth", "measured": 15}

Query: Given `Oc1c(Cl)cc(Cl)cc1C(c1cc(Cl)cc(Cl)c1O)C(Cl)(Cl)Cl` , state its recorded growth.
Result: 0.34

Query: Entry `CCN1/C(=C/C(C)=C/c2sc3ccc4ccccc4c3[n+]2CC)Sc2ccc3ccccc3c21` : reported growth = ?
Result: -69.5

Query: Tell me the measured growth of CC1C(c2ccccc2)OCCN1C(=S)Nc1ccc(S(=O)(=O)N2CCCCC2)cc1 (centres undefined) , please.
Result: 91.8

Query: Quick check: growth of CC(C)=CCCC(C)C1=C(O)C(=O)C(C)=CC1=O (centres undefined) ?
Result: -85.2

Query: Which growth is reported for this compound? `Nc1nc(-c2ccccc2)nc(N)c1N=O`
Result: 51.6

Query: What value of growth has been recorded for this entry: `N#CCc1cccc2ccccc12`
Result: 106

Query: Need growth of `COc1cc(OC)c(/C=C/c2c3ccccc3cc[n+]2C)c(OC)c1` , thanks.
Result: 18.5

Query: # lookup: growth of CCOc1ccc2c(c1)/C(=C\C=C\C1CC(C)C3CC(OCC)CCC3N1CC)CC(C)N2CC (centres undefined)
Result: 10.7

Query: Give the measured growth of CC1=CC(=O)C=CC1(C)C(Cl)(Cl)Cl (centres undefined) .
Result: 89.9

Query: Name the reported growth value associated with the compound `O=C1/C(=C/c2ccccn2)CCc2ccccc21`
Result: 90.4

Query: Any idea what growth was measured for COc1ccc(C(OCC2OC(n3ccc(NC(=O)c4ccccc4)nc3=O)C(O)C2O)(c2ccccc2)c2ccccc2)cc1 (centres undefined) ?
Result: 3.43

Query: Could you share which growth value was measured for `CN(C)c1ccc(/C=C/c2cc[n+](C)c(/C=C/c3ccc(N(C)C)cc3)c2)cc1` ?
Result: 9.38

Query: So what does the record say about growth for C=C(C(N)=O)C(N)C(=O)O (centres undefined) ?
Result: 92.4

Query: # query: growth of entry N#CC1c2ccccc2C=CN1C(=O)CCCl (centres undefined)
Result: 84.1

* * *

System: SK-MEL-28 melanoma
measurement_protocol: NCI-60 one-dose screen, 48 h (100 = growth as untreated, 0 = no growth, -100 = all killed)
condition_context: 10 µM unless noted
This is part of a sample that, as a whole, favours compounds with a hit. Of some 83,000 tested, about 20% had one in any assay.
quantity_kind: growth (%)
Numeric only. Scale: %

{"compound": "O=C(c1ccccc1)c1ccc(O)c2ncccc12", "units_text": "%", "growth": 68}

Query: Report growth for CC1=CC(=O)C=CC1(C)C(Cl)(Cl)Cl (centres undefined) please.
Result: 102

Query: Returns the measured growth for the input compound. Input: `N#CCc1cccc2ccccc12`
Result: 94.7

Query: Sample `COC(=O)c1nc(=S)[nH]c(C(=O)OC)c1C(=O)c1ccc(Cl)c(Cl)c1` — what was its growth?
Result: 124

Query: growth for `O=C(O)c1cccc2cccc(-c3c4ccc(=O)c(O)c-4oc4c(O)c(O)ccc34)c12` ?
Result: 97.6

Query: # input compound: `Cc1cc2cccnc2c2ncccc12` ; wanted: its growth
Result: 32.2

Query: Need growth, item `O=[N+]([O-])c1cc(-c2ccccc2)c(O)c([N+](=O)[O-])c1`
Result: 66.2

Query: Report growth for `CCOC(=O)c1cc(CC)sc1NC(=O)CC(C)=O` please.
Result: 96.7

Query: Quick check: growth of CCCCCCCCCCCCCCCC[N+]1(C)CCCC1c1cccnc1 (centres undefined) ?
Result: 97
